- measurement_description: Oral bioavailability in dog at 1 mg/kg
- Assay type: ADME, organism-based, Canis lupus familiaris
- condition_summary: in vivo

structure_notation: Cc1nc(N(C)C(=O)Cc2ccc(-c3ccccn3)cc2)sc1S(N)(=O)=O
bioavailability (%): 83

* * *

- assay_system: UniProt:P00918

structure_notation: Cc1nc(N(C)C(=O)Cc2ccc(-c3ccccn3)cc2)sc1S(N)(=O)=O
IC50 [nM]: 2000

* * *

- measurement_description: Half life in human at 1 mg/kg, po
- Format: ADME, organism-based
- condition_summary: in vivo

structure_notation: Cc1nc(N(C)C(=O)Cc2ccc(-c3ccccn3)cc2)sc1S(N)(=O)=O
half-life (h): 60

* * *

- measurement_description: Oral bioavailability in dog
- Assay type: ADME, organism-based, Canis lupus familiaris
- condition_summary: in vivo
reported_metric: bioavailability

structure_notation: Nc1nc2c(ncn2COCCO)c(=O)[nH]1
reported_metric: bioavailability
obs_value: 83%

* * *

- assay_system: UniProtKB Q12809
- Sequence (Q12809 whole entry): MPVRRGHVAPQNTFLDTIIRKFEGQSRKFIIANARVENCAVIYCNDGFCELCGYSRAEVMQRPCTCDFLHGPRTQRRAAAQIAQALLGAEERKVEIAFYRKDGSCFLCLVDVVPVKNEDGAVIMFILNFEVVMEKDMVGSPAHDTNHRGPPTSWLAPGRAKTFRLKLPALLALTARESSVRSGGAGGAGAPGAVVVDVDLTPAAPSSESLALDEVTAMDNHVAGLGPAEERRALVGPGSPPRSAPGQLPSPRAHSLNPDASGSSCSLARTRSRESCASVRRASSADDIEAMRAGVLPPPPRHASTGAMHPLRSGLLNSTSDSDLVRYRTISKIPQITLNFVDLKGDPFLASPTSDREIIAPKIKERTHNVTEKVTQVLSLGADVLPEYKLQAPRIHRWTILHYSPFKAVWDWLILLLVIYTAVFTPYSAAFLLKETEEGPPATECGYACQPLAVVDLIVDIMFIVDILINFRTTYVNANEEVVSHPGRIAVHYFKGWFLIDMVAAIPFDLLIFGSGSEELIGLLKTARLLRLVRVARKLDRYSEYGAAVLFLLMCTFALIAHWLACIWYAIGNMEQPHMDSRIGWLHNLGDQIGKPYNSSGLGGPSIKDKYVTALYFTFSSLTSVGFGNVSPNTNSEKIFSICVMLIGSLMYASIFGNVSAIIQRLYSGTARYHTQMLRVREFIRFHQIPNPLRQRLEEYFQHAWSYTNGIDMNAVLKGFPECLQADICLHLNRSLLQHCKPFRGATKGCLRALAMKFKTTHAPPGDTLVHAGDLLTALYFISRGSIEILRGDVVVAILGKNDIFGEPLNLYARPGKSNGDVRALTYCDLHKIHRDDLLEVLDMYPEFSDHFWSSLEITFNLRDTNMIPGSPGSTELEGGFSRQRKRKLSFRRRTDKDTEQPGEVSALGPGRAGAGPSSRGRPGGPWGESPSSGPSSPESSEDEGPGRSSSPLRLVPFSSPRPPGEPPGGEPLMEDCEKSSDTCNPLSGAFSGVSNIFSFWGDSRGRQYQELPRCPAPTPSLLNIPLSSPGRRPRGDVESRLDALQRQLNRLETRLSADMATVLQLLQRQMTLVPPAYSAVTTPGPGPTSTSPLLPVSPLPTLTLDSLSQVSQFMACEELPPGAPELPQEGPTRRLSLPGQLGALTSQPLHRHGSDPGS
- measurement_description: Inhibition of human ERG expressed in HEK293 cells by whole cell patch clamp assay
pIC50: −log10 of the molar value.
reported_metric: pIC50

structure_notation: Cc1nc(N(C)C(=O)Cc2ccc(-c3ccccn3)cc2)sc1S(N)(=O)=O
obs_value: 3.80

* * *

- measurement_description: AUC in dog at 1 mg/kg, po
- Assay type: ADME, organism-based, Canis lupus familiaris
- Design: dose 1 mg/kg, route po
- condition_summary: in vivo

structure_notation: Cc1nc(N(C)C(=O)Cc2ccc(-c3ccccn3)cc2)sc1S(N)(=O)=O
unit_text: ng·h/mL
AUC: 54200

* * *

- measurement_description: Terminal elimination half life in human at […]
- Type: ADME, organism-based
- condition_summary: in vivo, read-out: beta t1/2 (converted)

structure_notation: Cc1nc(N(C)C(=O)Cc2ccc(-c3ccccn3)cc2)sc1S(N)(=O)=O
half-life / h: 60

* * *

- measurement_description: Oral bioavailability in rat at 1 mg/kg
- Type: ADME, organism-based
- condition_summary: in vivo
reported_metric: bioavailability (%)

structure_notation: Cc1nc(N(C)C(=O)Cc2ccc(-c3ccccn3)cc2)sc1S(N)(=O)=O
obs_value: 65

* * *

- measurement_description: Oral bioavailability in monkey
- Format: ADME, organism-based, Macaca mulatta
- condition_summary: rhesus monkey, in vivo

compound: Nc1nc2c(ncn2COCCO)c(=O)[nH]1 [ACYCLOVIR]
bioavailability [%]: 63

* * *

- measurement_description: Oral bioavailability in human at 400 mg administered as 1 hr intravenous infusion
- Assay type: ADME, organism-based
- condition_summary: in vivo
Each entry below carries its recorded bioavailability.

structure_notation: Nc1nc2c(ncn2CCC(CO)CO)c(=O)[nH]1
bioavailability: 60%
//
structure_notation: Cc1nc(N(C)C(=O)Cc2ccc(-c3ccccn3)cc2)sc1S(N)(=O)=O
bioavailability: 60%
